Entry source: patent US20250064090A1

# Test system: E. coli strains HT-99 (donor) and J53R (receptor)
# Assay type: cell-based, Escherichia coli
# particulars: 3 hours, 37° C.
parameter.measured: Conjugation frequency

compound=CCCCCCCC/C=C\CCCCCCCC(=O)O parameter_measured="Conjugation frequency" observed_result=0.00011
compound=CC(C)=CCCC(C)=CC=O parameter_measured="Conjugation frequency" observed_result=0.0023
compound=Cc1ccc(C(C)C)cc1O parameter_measured="Conjugation frequency" observed_result=0.0044
compound=Cc1ccc(C(C)C)c(O)c1 parameter_measured="Conjugation frequency" observed_result=0.0019
compound=O=CC=Cc1ccccc1 parameter_measured="Conjugation frequency" observed_result=0.0011
compound="C=CC(C)(O)CCC=C(C)C (stereo not shown)" parameter_measured="Conjugation frequency" observed_result=0.00085
compound=O=C(OC[C@H]1O[C@@H](OC(=O)c2cc(O)c(O)c(OC(=O)c3cc(O)c(O)c(O)c3)c2)[C@H](OC(=O)c2cc(O)c(O)c(OC(=O)c3cc(O)c(O)c(O)c3)c2)[C@@H](OC(=O)c2cc(O)c(O)c(OC(=O)c3cc(O)c(O)c(O)c3)c2)[C@@H]1OC(=O)c1cc(O)c(O)c(OC(=O)c2cc(O)c(O)c(O)c2)c1)c1cc(O)c(O)c(OC(=O)c2cc(O)c(O)c(O)c2)c1 parameter_measured="Conjugation frequency" observed_result=0.00007

----------
# Tested on: E. coli strains HT-99 (donor) and J53R (receptor)
# Type: cell-based, Escherichia coli
# particulars: single ingredient, 100 mg/L, from Table 1
parameter.measured: Class of ingredient by conjugation frequency compared to control (in words)

molecule=O=C(OC[C@H]1O[C@@H](OC(=O)c2cc(O)c(O)c(OC(=O)c3cc(O)c(O)c(O)c3)c2)[C@H](OC(=O)c2cc(O)c(O)c(OC(=O)c3cc(O)c(O)c(O)c3)c2)[C@@H](OC(=O)c2cc(O)c(O)c(OC(=O)c3cc(O)c(O)c(O)c3)c2)[C@@H]1OC(=O)c1cc(O)c(O)c(OC(=O)c2cc(O)c(O)c(O)c2)c1)c1cc(O)c(O)c(OC(=O)c2cc(O)c(O)c(O)c2)c1 observed_result="conjugation inhibitors"
molecule=Cc1ccc(C(C)C)cc1O observed_result="conjugation enhancers"
molecule=CCCCCCCC/C=C\CCCCCCCC(=O)O observed_result="conjugation inhibitors"
molecule=Cc1ccc(C(C)C)c(O)c1 observed_result="conjugation enhancers"
molecule="C=CC(C)(O)CCC=C(C)C (stereo not shown)" observed_result="conjugation inhibitors"
molecule=CC(C)=CCCC(C)=CC=O observed_result="conjugation enhancers"
